Tested on: OVCAR-5 ovarian
assay.explanation: NCI-60 one-dose screen, 48 h (100 = growth as untreated, 0 = no growth, -100 = all killed)
experimental.context: 10 µM unless noted
About 83,000 compounds went through this panel and 20% of them were active in at least one assay; those are over-represented in the sample as a whole.
Sorting guide: entries reporting growth beneath 80% go in the Y pile, the rest go in the N pile.

Q. is_below(growth, 80%) for N[C@@H](CO)C(=O)O ?
A. N

Q. Also check CCOc1c(C#N)c2c(N)ncnc2n1C1OC(CO)C(O)C1O (stereo unspecified)
A. N

Q. Do the same for COc1ccc(-c2nnc(SCC(=O)Nc3ccc(C(=O)/C=C/c4ccc(Cl)cc4)cc3)n2-c2ccccc2)cc1 please
A. N

Q. Likewise for Cc1ccc2oc(=O)cc(-c3nc4ccc([N+](=O)[O-])cc4[nH]3)c2c1 ?
A. N

Q. Now the same for O=C(C=P(c1ccccc1)(c1ccccc1)c1ccccc1)CCl
A. Y

---

System: SN12C renal
assay.explanation: NCI-60 one-dose screen, 48 h (100 = growth as untreated, 0 = no growth, -100 = all killed)
experimental.context: 10 µM unless noted
The panel holds about 83,000 compounds, 20% with a hit somewhere; the sample as a whole holds those more often.
readout: growth (%)
Provide only the numeric value, understood in %.

Q. growth for COc1ccc([C@@H]2[C@@H](Cl)C(=O)N2c2cc(OC)c(OC)c(OC)c2)cc1C ?
A. 31.2

Q. // same read-out, input: COc1c(-c2cc(-c3ccc(C)o3)[nH]c(=O)n2)c(O)cc2occc12
A. 63.6

Q. Do the same for CN(C)c1ccc(/C=N/Nc2nnc3n2N=C(c2ccc(Cl)cc2)CS3)cc1 please
A. 95

Q. Another molecule to check: N#Cc1nc(-c2cccc(Br)c2)cc(-c2ccc(Nc3nc(N4CCCCC4)nc(N4CCCCC4)n3)cc2)c1N
A. 16.7

Q. Would you mind doing C/C(=N\OC(=O)Nc1cccc(Cl)c1)c1ccccc1 as well?
A. 95

Q. Further, for COc1ccc2c(c1)CCCC21C(=O)Nc2c(Cl)cccc21 (stereo not given) ?
A. 82.6

Q. Repeat with COc1cc(C2C=C(C)N=C3SC=NN32)cc(OC)c1OC (stereo not given)
A. 100

Q. Also Nc1nonc1-c1nc2ccccc2n1Cc1ccc(F)cc1 , if possible.
A. 62.4

Q. Please give the result for CC(C)(C)c1ccc(Cn2c(-c3nonc3N)nc3ccccc32)cc1 too.
A. 73.6

Q. Similarly, CC(CN1CCN(C)CC1)CN1c2ccccc2Sc2ccc(C(F)(F)F)cc21 (stereo not given) ?
A. 47.2

---

System: SK-MEL-2 melanoma
assay.explanation: NCI-60 one-dose screen, 48 h (100 = growth as untreated, 0 = no growth, -100 = all killed)
experimental.context: 10 µM unless noted
The panel holds about 83,000 compounds, 20% with a hit somewhere; the sample as a whole holds those more often. The source made the active and inactive calls. How the source made its calls: active means growth percent below 10; inactive means the rest.
readout: growth

Q. Name the recorded growth for COc1ccc2nc(NC(=O)/C(=C/c3cc(OC)c(OC)c(OC)c3)c3ccc(OC)c(OC)c3)sc2c1 .
A. 95.6% (inactive)

Q. # iterate: COc1cc(Cn2c(-c3ccccc3)cc3c2-c2oncc2CC3)cc(OC)c1OC
A. 31.4% (inactive)

Q. Again, but for C#CC[C@@H]1C[C@]2(C)[C@H]3CC[C@@H]4[C@H]5C(C(=C)C)CC[C@]5(C(=O)NCCCN5CCN(CCCN)CC5)CC[C@@]4(C)[C@]3(C)CC[C@H]2C(C)(C)[C@H]1OC(C)=O (some centres not stated)
A. -18.1% (active)

Q. Now give it for Cc1[nH]n(C(=O)c2ccncc2)c(=O)c1N=Nc1ccc(O)c(C(=O)O)c1 too.
A. 159% (inactive)

Q. Same again, this time with CNCc1cccc2c1OCCOCCOCCC(C)S(=O)(=O)c1ccc(cc1)-c1cnc(N)c(n1)C(=O)N2 (configuration not stated)
A. 75.2% (inactive)

Q. Similarly, O=C(O)c1ccccc1N=Cc1ccccc1 ?
A. 108% (inactive)

Q. Can you handle Cc1cc(C)cc(CCCCCCCCCCCCCCCCCC(=O)O)c1 next?
A. 150% (inactive)

Q. Also, Fc1ccc(-c2nnc(N3CCOCC3)c3ccccc23)cc1 please.
A. 111% (inactive)

Q. Now consider F and answer again.
A. -27.7% [6.87 mM] (active)

Q. Subsequent entry: Cc1cc(C)cc(NC(=O)Cn2nncc2CN2C(=O)CSC2=O)c1
A. 106% (inactive)

Q. Next compound up: CCCCC(CCc1ccccn1)C(=O)c1ccccc1 (configuration not stated)
A. 116% (inactive)

Q. Similarly, CCOC(=O)c1c(NC(=O)c2ccccc2)sc2c(O)c(CN(CC)CC)ccc12 ?
A. 7.87% (active)

Q. What would you report for NC(N)=N/N=C\c1ccc(OCc2ccccc2)cc1 ?
A. 86.6% (inactive)

Q. Item: COc1cc(-c2nc(-c3nc4cc(C(=O)c5ccccc5)ccc4[nH]3)cc3c2[nH]c2ccccc23)cc(OC)c1OC
A. 87.3% (inactive)

Q. Would you kindly repeat that for Cc1ccc(NC(=O)Cn2nncc2CN2C(=O)CSC2=O)cc1C ?
A. 102% (inactive)

Q. Please answer likewise for O=c1[nH]c2ccccc2n2cc3cccnc3c12
A. 105% (inactive)

Q. Same question, O=C(/C=C/c1cccc([N+](=O)[O-])c1)c1ccc(Nc2nc(N3CCCCC3)nc(N3CCCCC3)n2)cc1 this time
A. 105% (inactive)

Q. What do we get for Nc1n[nH]c2ccc([C@@H]3Nc4c(F)cc5[nH]ncc5c4[C@H]4C5CCC(C5)[C@@H]34)cc12 (some centres not stated) ?
A. 53.7% (inactive)

Q. Next entry: CC(=O)c1ccc(-n2c(-c3cc(-c4ccsc4)n[nH]3)n[nH]c2=S)cc1
A. 86.9% (inactive)

Q. CCCCCCCCCC1=NC(C)(C)CN1C(C)(C)CO ?
A. 124% (inactive)

Q. Next: Cc1nn(-c2ccc(Cl)cc2)c(=O)n1CCN1CCOCC1
A. 61.1% (inactive)

Q. Now this one: O=C(Oc1c(Cl)c(Cl)c(Cl)c(Cl)c1Cl)C1CCCN1C(=O)OCc1ccccc1 (configuration not stated)
A. 69.9% (inactive)

Q. One more compound: CCCCCCCCCCCCCC[N+](C)(C)CCCCCCCCCCCCCC
A. 67.6% (inactive)

Q. Here is the next compound: Nc1c(C(=O)Nc2cccc(Cl)c2)sc2ncc(Br)cc12
A. 89.6% (inactive)

Q. Now consider N#Cc1nc(-c2cccc(Br)c2)cc(-c2ccc(Nc3nc(N4CCCCC4)nc(N4CCCCC4)n3)cc2)c1N and answer again.
A. -10.7% (active)

Q. Now try COc1ccc(Sc2[nH]c(C=O)c3ccccc23)cc1 .
A. 69% (inactive)

Q. Also COc1ccc(NC(=O)/C=C/c2ccc(Cl)c(Cl)c2)cn1 ?
A. 101% (inactive)

Q. Same for CNCc1ccccc1CN(CC(=O)Nc1ccc2c(c1)CC1(C2)C(=O)Nc2ncccc21)C(=O)C(C)(C)C (configuration not stated)
A. 104% (inactive)

Q. Now consider Fc1[nH]nc2ccc([C@@H]3Nc4ccc5[nH]ncc5c4[C@H]4C5CCC(C5)[C@@H]34)cc12 (some centres not stated) and answer again.
A. 33.1% (inactive)

Q. Entry to check: COc1c(B(O)O)cccc1-c1nc2ccc3[nH]ncc3c2c2c1CCCC2
A. 33.7% (inactive)

Q. Try this compound next: Cc1c(C)c(C)c([N+](=O)[O-])c([N+](=O)[O-])c1C
A. 103% (inactive)

Q. Follow-up entry: CO[C@@]12[C@@H]3NC3CN1C1=C(C(=O)C(N)=C(C)C1=O)[C@@H]2COC(N)=O (some centres not stated)
A. -11.2% (active)

Q. Repeat for the following compound: CNCCCNc1ccnc2cc(Cl)ccc12
A. -64.5% (active)

Q. # repeat for O=C(c1ccccc1)N(CCCCl)C(=O)N(CCCCl)C(=O)c1ccccc1
A. 103% (inactive)

Q. Similarly, COc1ccc2c(c1)CCCC21C(=O)Nc2ccccc21 (configuration not stated) ?
A. 96% (inactive)

Q. Proceed to COc1ccc(-c2oc(=O)ccc2-c2cc(OC)c(OC)c(OC)c2)cc1F
A. 92.8% (inactive)

Q. How about this compound: O=C(/C=C/c1ccccc1)n1c(-c2ccccc2)nc2ccccc21
A. 112% (inactive)

Q. Note, next up: CCN(CC)Cc1cc(Nc2ccnc3cc(Cl)ccc23)cc(-c2ccc(Cl)cc2)c1O
A. 80.1% (inactive)

Q. Next up: COc1ccc(NC(=O)c2ccc(C(F)(F)F)nc2Nc2ccc(Cl)cc2C)cc1Cl
A. 31.9% (inactive)

Q. Also need COc1cc(CN2CCO[C@H](COc3cccc(F)c3)C2)ccc1Cl , thanks.
A. 31% (inactive)

Q. How about this compound: Brc1cccc(-n2ncc3c(Nc4ccc(-c5nnc(-c6ccccc6)o5)cc4)ncnc32)c1
A. 115% (inactive)

Q. Also need C/C(=N\OC(=O)Nc1ccccc1)c1ccccc1 , thanks.
A. 111% (inactive)
